Listed below: TGI values for each entry.
- Tested on: SR leukemia
- test: NCI tumour cell line growth inhibition, 48 h
Form entry: value (µM) — number only.

molecule	units-of-measure	numeric-value
CC1(C)CC2C=C(C=O)C3(C=O)CC3(C)C2C1 (stereo unspecified)	µM	2.45

Problem: Report TGI for "CC[CH2][Sn]([Cl])([Cl])[CH2]CC" please.
Result: 80.7

Problem: Quick one: CC1OC(OC2CC(O)C3(CO)C4C(O)CC5(C)C(C6=CC(=O)OC6)CCC5(O)C4CCC3(O)C2)C(O)C(O)C1O (stereo unspecified)
Result: 0.0546

Problem: Quick one: "COc1ccc(/C=C/c2cc(N3CCOCC3)c3cc(F)c(F)cc3n2)cc1OC"
Result: 6.78

Problem: Quick one: "COc1ccc(-c2nn(-c3cccc(NC(=O)Nc4cc(C(F)(F)F)cc(C(F)(F)F)c4)c3)cc2-c2ccncc2)cc1Cl"
Result: 3.13

Problem: Quick one: CCCN(CCCCN1C(=O)c2ccccc2C1=O)CC1COc2ccccc2O1 (stereo unspecified)
Result: 77.6

Problem: Quick one: "Oc1c(-c2ccccc2)sc2ccccc12"
Result: 34.9

Problem: Quick one: "CCOc1ccc2c(ccc(/C=C\c3cc(C)c4cccnc4c3O)[n+]2C)c1"
Result: 5.73

Problem: Quick one: CCOP(=O)(OCC)C(Cc1ccc(OC)c(OC)c1)N=C(c1ccccc1)c1ccccc1 (stereo unspecified)
Result: 46.4

Problem: Quick one: CC(/C=C/c1ccc([N+](=O)[O-])o1)=N/N1CC(CN2CCOCC2)OC1=O (stereo unspecified)
Result: 50.4

Problem: Quick one: CCN(CC)CCCC(Nc1c2ccc(Cl)cc2nc2ccc(OC)cc12)c1ccc(F)cc1 (stereo unspecified)
Result: 5.88

The measurements presented in this section are drawn from PubChem BioAssay (NCI).
